Where do the numbers come from? From patent US20240279232A1.

Overview of reported inhibition at 50 µM across a group of molecules:
Test system: Mouse microglia
Assay: NO production (Griess assay), LPS/IFNγ-activated mouse microglia
Assay type: cell-based
Settings: Mus musculus, Microglia, 24 h
Description: Next, a library of GABAAR ligands was investigated to identify compounds that reduce the production of NO as a marker of anti-inflammatory activity. […] NO was quantified with a Greiss assay. Cell viability was determined with CellTiter-Glo. Cell culture. […] Nitric oxide production (Griess assay) and viability assay (CellTiter-Glo). […] Absorbance at 530 nm was measured using a TECAN Infinite M1000 plate reader. […] Luminescence was read using a TECAN Infinite M1000 plate reader.

molecule: C#Cc1ccc2c(c1)C(c1ccccc1F)=N[C@@H](C)c1c(-c3nc(C)no3)ncn1-2 [GL-I-65]
inhibition at 50 µM: 19%
//
molecule: C#Cc1ccc2c(c1)C(c1ccccc1F)=N[C@@H](C)c1c(-c3nc(C(C)C)no3)ncn1-2 [GL-I-81]
inhibition at 50 µM: 87%
//
molecule: C#Cc1ccc2c(c1)C(c1ccccc1F)=NCc1c(-c3cnco3)ncn1-2 [KRM-II-18B]
inhibition at 50 µM: 0%
//
molecule: C[C@H]1N=C(c2ccccc2F)c2cc(Br)ccc2-n2cnc(-c3cnco3)c21 [GL-III-36]
inhibition at 50 µM: 41%
//
molecule: C#Cc1ccc2c(c1)C(c1ccccn1)=NCc1c(-c3nc(CC)no3)ncn1-2 [MP-III-080]
inhibition at 50 µM: 0%
//
molecule: Cc1noc(-c2ncn3c2[C@@H](C)N=C(c2ccccc2F)c2cc(C4CC4)ccc2-3)n1 [GL-III-63]
inhibition at 50 µM: 89%
//
molecule: C#Cc1ccc2c(c1)C(c1ccccc1F)=N[C@@H](C)c1c(-c3nc(CC)no3)ncn1-2 [GL-I-66]
inhibition at 50 µM: 86%

====

Overview of reported Inhibition of NO production (%) Mouse microglia 10 μM across a group of compounds:
Test system: Mouse microglia
Test: NO production (Griess assay), LPS/IFNγ-activated mouse microglia
Type: cell-based
Conditions: 10 μM, 24 hours, 1 μM GABA, LPS/IFNγ
value kind: Inhibition of NO production (%) Mouse microglia 10 μM

compound: C#Cc1ccc2c(c1)C(c1ccccn1)=N[C@H](C)c1c(-c3nc(CC)no3)ncn1-2
target: Mouse microglia
measured result: 11 ± 6%

compound: C#Cc1ccc2c(c1)C(c1ccccc1F)=NC(C)c1c(C(=S)NC)ncn1-2 (stereo not shown)
target: Mouse microglia
measured result: 32 ± 4%

compound: C#Cc1ccc2c(c1)C(c1ccccc1F)=NC(C)C(=O)N2C (stereo not shown) [GL-III-24]
target: Mouse microglia
measured result: 67 ± 12%

compound: CC1N=C(c2ccccc2F)c2cc(Br)ccc2-n2cnc(-c3cnco3)c21 (racemic) [GL-III-76A]
target: Mouse microglia
measured result: 58 ± 9%

====

System: Mouse microglia
Experiment: Cell viability (CellTiter-Glo), mouse microglia
Assay type: cell-based
Conditions: 50 μM, CellTiter-Glo

compound: C#Cc1ccc2c(c1)C(c1ccccc1F)=N[C@@H](C)c1c(-c3nc(C)no3)ncn1-2 [GL-I-65]
output unit: %
Cell viability (%) Mouse microglia 50 μM: 100
--
compound: CC1N=C(c2ccccc2F)c2cc(Br)ccc2-n2cnc(C(=O)[O-])c21.[Na+] (centres unmarked) [GL-IV-18]
output unit: %
Cell viability (%) Mouse microglia 50 μM: 81
--
compound: C[C@H]1N=C(c2ccccn2)c2cc(Br)ccc2-n2cnc(C(=O)O)c21 [GL-II-51]
output unit: %
Cell viability (%) Mouse microglia 50 μM: 95
--
compound: C#Cc1ccc2c(c1)C(c1ccccc1F)=NCc1c(C(=O)O)ncn1-2 [GL-II-79]
output unit: %
Cell viability (%) Mouse microglia 50 μM: 84
--
compound: CC1N=C(c2ccccc2F)c2cc(Br)ccc2-n2cnc(C=O)c21 (centres unmarked) [GL-III-35]
output unit: %
Cell viability (%) Mouse microglia 50 μM: 100
--
compound: C#Cc1ccc2c(c1)C(c1ccccc1F)=N[C@H](C)c1c(C(=O)NC(C)C)ncn1-2 [GL-III-66]
output unit: %
Cell viability (%) Mouse microglia 50 μM: 85
--
compound: CC1N=C(c2ccccc2F)c2cc(Br)ccc2-n2cnc(-c3cnco3)c21 (racemic) [GL-III-76A]
output unit: %
Cell viability (%) Mouse microglia 50 μM: 100
--
compound: C#Cc1ccc2c(c1)C(c1ccccc1F)=N[C@H](C)c1c(-c3nc(CC)no3)ncn1-2 [MP-IV-005]
output unit: %
Cell viability (%) Mouse microglia 50 μM: 86
--
compound: CCOC(=O)c1ncn2c1CN=C(c1ccccn1)c1cc(C3CC3)ccc1-2 [GL-IV-05]
output unit: %
Cell viability (%) Mouse microglia 50 μM: 88
--
compound: C[C@H]1N=C(c2ccccc2F)c2cc(Br)ccc2-n2cnc(C(=O)N(C)C)c21 [GL-III-69]
output unit: %
Cell viability (%) Mouse microglia 50 μM: 87
--
compound: C#Cc1ccc2c(c1)C(c1ccccn1)=N[C@H](C)c1c(-c3nc(CC)no3)ncn1-2 [GL-III-97]
output unit: %
Cell viability (%) Mouse microglia 50 μM: 100

====

System: HEPG2
Assay: Viability assay (CellTiter-Glo), HEPG2
Assay type: cell-based, human
Conditions: 120 μM, CellTiter-Glo
Overview of reported Cell viability (%) HEPG2 120 μM across a group of molecules:
value kind: Cell viability (%) HEPG2 120 μM

molecule: C#Cc1ccc2c(c1)C(c1ccccc1F)=N[C@H](C)c1c(-c3cnco3)ncn1-2
measured result: 100 ± 9%
--
molecule: C#Cc1ccc2c(c1)C(c1ccccc1F)=NC(C)c1c(C(=O)[O-])ncn1-2.[Na+] (stereo not drawn)
measured result: 93 ± 8%
--
molecule: C#Cc1ccc2c(c1)C(c1ccccn1)=NCC(=O)N2
measured result: 100 ± 5%
--
molecule: C#Cc1ccc2c(c1)C(c1ccccc1)=NCc1c(C(=O)OCCCO)ncn1-2
measured result: 100 ± 4%
--
molecule: C#Cc1ccc2c(c1)C(c1ccccc1F)=NC(C)c1c(C(=S)NC)ncn1-2 (stereo not drawn)
measured result: 100 ± 10%
--
molecule: CC1N=C(c2ccccc2F)c2cc(Cl)ccc2NC1=O (stereo not drawn)
measured result: 81 ± 9%
--
molecule: C#Cc1ccc2c(c1)C(c1ccccn1)=NCc1c(-c3cnco3)ncn1-2
measured result: 100 ± 12%
--
molecule: C#Cc1ccc2c(c1)C(c1ccccc1F)=NC(C)C(=O)N2C (stereo not drawn) [GL-III-25]
measured result: 100 ± 5%
--
molecule: C#Cc1ccc2c(c1)C(c1ccccc1F)=N[C@H](C)c1c(C(=O)NC)ncn1-2
measured result: 94 ± 7%

====

Biological target: DOR (δ opioid receptor) (Homo sapiens)
Construct: expressed in transfected cells; host or cells: HEK293
Sequence (P41143 whole entry): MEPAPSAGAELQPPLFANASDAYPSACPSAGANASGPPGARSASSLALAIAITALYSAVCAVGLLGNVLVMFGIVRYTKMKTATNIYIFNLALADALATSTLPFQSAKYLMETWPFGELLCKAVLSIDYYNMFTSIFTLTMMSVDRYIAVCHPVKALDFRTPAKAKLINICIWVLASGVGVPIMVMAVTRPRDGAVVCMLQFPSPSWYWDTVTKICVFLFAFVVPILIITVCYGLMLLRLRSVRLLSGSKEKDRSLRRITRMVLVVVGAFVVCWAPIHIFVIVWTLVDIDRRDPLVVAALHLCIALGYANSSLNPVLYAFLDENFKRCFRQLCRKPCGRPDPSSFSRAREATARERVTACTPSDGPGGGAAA
Assay: DOR radioligand binding ([3H]-DADLE, HEK293 cell homogenates)
Details: Percent inhibition at 10,000 nM; [3H]-DADLE

compound: CCOC(=O)c1ncn2c1[C@@H](C)N=C(c1ccccc1F)c1cc(Br)ccc1-2 [SH-I-047]
target: DOR (δ opioid receptor) (Homo sapiens)
inhibition at 10 µM, %: 0

compound: C#Cc1ccc2c(c1)C(c1ccccc1F)=N[C@@H](C)c1c(-c3nc(CC)no3)ncn1-2 [GL-I-66]
target: DOR (δ opioid receptor) (Homo sapiens)
inhibition at 10 µM, %: 2

compound: C#Cc1ccc2c(c1)C(c1ccccc1F)=N[C@@H](C)c1c(-c3nc(C)no3)ncn1-2 [GL-I-65]
target: DOR (δ opioid receptor) (Homo sapiens)
inhibition at 10 µM, %: 7

compound: C[C@H]1N=C(c2ccccn2)c2cc(Br)ccc2-n2cnc(C(=O)O)c21 [GL-II-51]
target: DOR (δ opioid receptor) (Homo sapiens)
inhibition at 10 µM, %: 0

compound: C[C@H]1N=C(c2ccccc2F)c2cc(Br)ccc2-n2cnc(C(=O)O)c21 [GL-II-93]
target: DOR (δ opioid receptor) (Homo sapiens)
inhibition at 10 µM, %: 0

compound: C#Cc1ccc2c(c1)C(c1ccccc1F)=N[C@@H](C)c1c(C(=O)OC3CC3)ncn1-2 [GL-I-38]
target: DOR (δ opioid receptor) (Homo sapiens)
inhibition at 10 µM, %: 16

compound: C#Cc1ccc2c(c1)C(c1ccccc1)=NCc1c(-c3cnco3)ncn1-2 [KRM-II-82]
target: DOR (δ opioid receptor) (Homo sapiens)
inhibition at 10 µM, %: 20

compound: Cc1noc(-c2ncn3c2[C@@H](C)N=C(c2ccccn2)c2cc(C4CC4)ccc2-3)n1 [GL-III-64]
target: DOR (δ opioid receptor) (Homo sapiens)
inhibition at 10 µM, %: 14

====

Tested on: HEPG2
Assay: Viability assay (CellTiter-Glo), HEPG2
Type: cell-based, human
Conditions: 120 μM, CellTiter-Glo
For each record, check the reported Cell viability (%) HEPG2 120 μM: if it is below 90% write met, else write not met.

compound: C#Cc1ccc2c(c1)C(c1ccccn1)=N[C@H](C)C(=O)N2 [GL-III-27]
qualitative label: met
--
compound: C[C@H]1N=C(c2ccccc2F)c2cc(Cl)ccc2-n2cnc(C(=O)O)c21 [GL-III-54]
qualitative label: not met
--
compound: CC1N=C(c2ccccc2F)c2cc(Br)ccc2-n2cnc(-c3cnco3)c21 (racemic) [GL-III-76A]
qualitative label: met
--
compound: C#Cc1ccc2c(c1)C(c1ccccn1)=N[C@H](C)c1c(C(=O)OCC)ncn1-2 [GL-II-19]
qualitative label: not met
--
compound: C#Cc1ccc2c(c1)C(c1ccccc1F)=N[C@H](C)c1c(-c3nc(C(C)C)no3)ncn1-2 [MP-IV-010]
qualitative label: met
--
compound: C#Cc1ccc2c(c1)C(c1ccccc1F)=NC(C)c1c(C(=S)NC3CC3)ncn1-2 (stereo not shown) [GL-III-87]
qualitative label: not met
